B1: FAM98B (parent)
chain: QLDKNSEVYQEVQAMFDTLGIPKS

# Variants of: B1
# protocol_description: protein stability index of a GFP-peptide fusion (GPS, HEK-293T) (PSI 1-6); higher = more stable;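 note: lentivirally expressed fusions sorted by FACS into six bins by GFP to DsRed ratio, PSI derived from sequencing read proportions per bin multiplied by bin number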
# condition_context: c terminus: a fixed tail appended
quantity_measured: protein stability index

1) L2E :: 5.34

So for `N5A` , the logged protein stability index turned out to be 3.56

So for `A14Q` , the logged protein stability index turned out to be 3.61

So for `E11K` , the logged protein stability index turned out to be 1.69

So for `M15H` , the logged protein stability index turned out to be 3.08

So for `S6D` , the logged protein stability index turned out to be 4.67

So for `D17K` , the logged protein stability index turned out to be 2.77

So for `Q13S` , the logged protein stability index turned out to be 3.24

So for `Q13P` , the logged protein stability index turned out to be 3.27

So for `P22G` , the logged protein stability index turned out to be 2.53

So for `E7W` , the logged protein stability index turned out to be 2.13

So for `V12S` , the logged protein stability index turned out to be 2.77
